I'd appreciate it if you could supply inhibition values for the items below.
Assay Remarks: NF-kB reporter blockers in CF airway cells – cell-based, GFP fluorescence, uHTS, primary screen (AID 588850);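 note: PAF is a Pseudomonas aeruginosa culture filtrate used as stimulus; plate controls were PAF-stimulated DMSO wells for no effect and unstimulated DMSO wells for full effect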
Condition Label: KKLEB NF-kB-GFP reporter, PAF-induced, GFP fluorescence overnight; at 5 µM; active compounds read high
Screen size: about 360,000 compounds; about 3,100 (0.86%) were called active. Many of the other results were omitted from the sample, so actives are more common in it than they were.
Express it in %; write the number only.

Record request: inhibition value, item "COc1ccccc1/C=C/C=N/n1c(-c2ccc(Cl)cc2Cl)n[nH]c1=S"
1.4

Name the reported inhibition value associated with the compound "O=C(CNC(=O)OCc1ccccc1)Oc1cc2oc(=O)cc(-c3ccccc3)c2cc1Cl"
72.8

Given the entry "CCOC(=O)c1c(C)oc2cc(Br)c(OCC(N)=O)cc12" , report its measured inhibition.
-3.8

Sample "CCOC(=O)c1c(C)oc2cc(Sc3ccccc3)c(O)c(O)c12" — what was its inhibition?
6.5

Quick one: inhibition for "COc1ccc(CC(=O)N[C@@H]2c3cc(OC)c(OC)cc3C[C@H]2OCc2ccccc2)cc1" ?
-5.1

Requested read-out: inhibition. Entry: "O=[N+]([O-])c1ccc(Oc2ccc(F)cc2Br)c2ccncc12"
65

GET /values?readout=inhibition&item= CCN(C(=O)CSc1nnnn1-c1ccccc1OC)C1CCS(=O)(=O)C1 (configuration not stated)
6

What value of inhibition has been recorded for this entry: "Cc1ccc(NS(=O)(=O)c2ccc3c(c2)oc(=O)n3C)c(C)c1"
21.8

Need inhibition, item "S=c1[nH]nc(-c2ccco2)n1/N=C/c1ccc(Br)s1"
5.5

Requested field: inhibition. Item: "O=C(O)CSCC(=O)Nc1ccc(C(F)(F)F)cc1"
-2.9

Name the recorded inhibition for "COc1ccc(CC(=O)c2ccc(O)cc2O)cc1OC" .
-7.8

Given the compound "Cc1ccc(S(=O)(=O)NNC(=O)/C=C/c2cccc(F)c2)cc1" , what is its reported inhibition?
-21.5

What measured inhibition goes with "Cc1ccc(OC(=O)c2cncc(Br)c2)c(C)c1" ?
1.1

Please report the recorded inhibition for "C=CCSc1nsc(NC(=O)Nc2cccc(C(C)=O)c2)n1" .
86.3

State the recorded inhibition for this entry: "COc1ccccc1-n1nnnc1S(=O)(=O)Cc1ccc(Cl)cc1"
85.9

Can you look up the measured inhibition of "CCOC(=O)c1cc(C(=O)Nc2ccc(S(=O)(=O)Nc3ccc(OC)cc3)cc2)nn1C" for me?
-4.7

Form field: reported inhibition of "CC(=O)Nc1ccc(SCC(=O)NC(=O)c2ccc(Cl)cc2)cc1"
-19.2

Would you kindly share the measured inhibition for "Cc1cc(-c2n[nH]c(=S)n2/N=C/C(Br)=C/c2ccccc2)n[nH]1" ?
87.5

Query (compound): "O=C(c1cccnc1)N(Cc1ccccc1)C(=O)c1cccnc1" ; field requested: inhibition
11.6

Please look up its inhibition: "COc1ccccc1CN(C)c1nnnn1-c1ccccc1"
-3.9

Return reported inhibition; argument: "C=C(C)C(=O)O[C@H]1C/C(C)=C\C(=O)/C=C(\C)[C@H](O)[C@@H]2OC(=O)C(=C)[C@@H]21"
74.1

Recorded inhibition of "CCOC(=O)c1sc2nc(C)nc(SCC(N)=O)c2c1C" , please.
11.9
